- Assayed target: T1, Human CD228 protein (human, UniProt P08582 20-708, limits assumed)
- T1 construct: Recombinant protein made in CHO cells, purified over a Ni column; The printed entry begins with the leader (MRGPSG...) and ends with ten His; also called hCD228; CD228-His protein
- T1 sequence: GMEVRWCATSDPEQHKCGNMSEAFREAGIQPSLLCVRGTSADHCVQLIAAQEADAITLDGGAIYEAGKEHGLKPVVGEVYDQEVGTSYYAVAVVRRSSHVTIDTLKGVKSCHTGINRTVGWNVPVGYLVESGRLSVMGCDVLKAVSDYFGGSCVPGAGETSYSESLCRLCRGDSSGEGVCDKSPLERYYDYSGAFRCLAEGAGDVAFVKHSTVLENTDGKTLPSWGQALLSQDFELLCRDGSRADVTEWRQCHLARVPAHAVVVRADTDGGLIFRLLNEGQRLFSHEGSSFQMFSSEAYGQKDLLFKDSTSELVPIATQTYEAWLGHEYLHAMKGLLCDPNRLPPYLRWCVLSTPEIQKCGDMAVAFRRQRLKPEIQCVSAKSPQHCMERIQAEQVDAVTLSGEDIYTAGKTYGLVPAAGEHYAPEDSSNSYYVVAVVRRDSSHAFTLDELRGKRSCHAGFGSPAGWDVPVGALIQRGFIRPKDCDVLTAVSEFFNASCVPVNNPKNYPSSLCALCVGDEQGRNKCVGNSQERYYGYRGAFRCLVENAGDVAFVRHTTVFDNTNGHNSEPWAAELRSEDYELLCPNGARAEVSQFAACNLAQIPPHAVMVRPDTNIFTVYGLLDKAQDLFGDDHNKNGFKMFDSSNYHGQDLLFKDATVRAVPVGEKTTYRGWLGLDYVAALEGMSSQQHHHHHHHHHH
- Measurement protocol: Octet competition on His-chip CD228; competitor: CA149
- Procedure: CD228 proteins were immobilized on His chips at 10 μg/mL with a threshold of 0.5 nm. The first CD228 antibody (30 μg/mL) was immobilized, and the competitive binding of the second CD228 antibody (30 μg/mL) was analyzed. The Octet 8K system was used to analyze the response of antibody 2 and to determine whether antibody 1 and antibody 2 were in competition.
Property label: Octet response value

Lookup: I'd like to know its Octet response value. The binder in question is CA67 (antibody, human IgG1, kappa, V domains shown, Intact IgG1) VH: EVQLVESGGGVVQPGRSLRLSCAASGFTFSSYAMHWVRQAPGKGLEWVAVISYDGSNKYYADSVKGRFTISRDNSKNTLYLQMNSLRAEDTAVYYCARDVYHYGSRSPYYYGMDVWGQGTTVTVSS VL: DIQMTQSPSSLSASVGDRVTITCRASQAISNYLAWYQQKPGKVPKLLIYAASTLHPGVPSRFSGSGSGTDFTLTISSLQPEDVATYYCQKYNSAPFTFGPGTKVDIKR
Found: -0.012
